Tested on: A549
RUN_DESCRIPTION: Cytotoxicity against human A549 cells after 72 hrs by fluoroskan ascent microplate reader analysis
Type: functional, cell-based
SETTINGS: A549, 72 h
QUANTITY_MEASURED: pIC50
// pIC50 here means minus log10 of the molar concentration (mol/L)

**Q:** Provide measured pIC50 on A549 for CC[C@H](CO)Nc1nc(NCc2ccccc2)c2[nH]nc(C(C)C)c2n1 please.
**A:** 5.15

====

STUDY_TARGET: Cyclin-dependent kinase 5/CDK5 activator 1 (Homo sapiens, UniProt Q00535)
Sequence (Q00535 whole entry): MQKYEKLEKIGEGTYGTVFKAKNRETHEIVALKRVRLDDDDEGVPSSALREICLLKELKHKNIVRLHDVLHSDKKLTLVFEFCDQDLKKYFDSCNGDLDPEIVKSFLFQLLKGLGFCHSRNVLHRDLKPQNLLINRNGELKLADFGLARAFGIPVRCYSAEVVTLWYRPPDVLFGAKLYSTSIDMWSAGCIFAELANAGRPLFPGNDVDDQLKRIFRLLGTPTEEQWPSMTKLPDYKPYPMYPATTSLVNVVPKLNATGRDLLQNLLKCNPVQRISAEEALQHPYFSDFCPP
Sequence (Q15078 whole entry, further chain): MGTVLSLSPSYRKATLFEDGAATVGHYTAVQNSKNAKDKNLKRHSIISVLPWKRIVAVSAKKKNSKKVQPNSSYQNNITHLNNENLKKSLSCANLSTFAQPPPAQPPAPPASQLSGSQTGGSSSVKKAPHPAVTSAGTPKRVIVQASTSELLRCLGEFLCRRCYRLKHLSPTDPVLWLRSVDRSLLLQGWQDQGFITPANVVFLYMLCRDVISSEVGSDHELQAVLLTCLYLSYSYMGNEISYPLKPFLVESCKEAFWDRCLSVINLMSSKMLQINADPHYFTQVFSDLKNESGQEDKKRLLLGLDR
RUN_DESCRIPTION: Inhibition of human recombinant CDK5/p35
QUANTITY_MEASURED: pIC50
// pIC50 here means minus log10 of the molar concentration (mol/L)

**Q:** Quickly give me recorded pIC50 for CC[C@H](CO)Nc1nc(NCc2ccccc2)c2n[nH]c(C(C)C)c2n1
**A:** 6.70

Origin of the recorded values: ChEMBL document CHEMBL1765057
